These measurements were taken from paper PMC11200585.

- System: BT-549
- protocol.description: NCI-60 one-dose screen (breast cancer)
- Type: cell-based, human
- condition.set: 10 µM single dose, 48 h
GP (growth percentage) strictly less than 50% = true (1). Otherwise false (0).

Example cases with answers are listed next.
# chemical.string, label.value
data = [
    ("COc1ccccc1NC1=C(Cl)C(=O)c2nc(C)ccc2C1=O", "false (0)"),
    ("COc1ccc(NC2=C(Cl)C(=O)c3nc(C)ccc3C2=O)cc1OC", "false (0)"),
    ("CCOc1ccc(NC2=C(Cl)C(=O)c3nc(C)ccc3C2=O)cc1", "true (1)"),
    ("CCOc1ccccc1NC1=C(Cl)C(=O)c2nc(C)ccc2C1=O", "true (1)"),
]

Continue with the compound presented below.
A record lists COc1cc(NC2=C(Cl)C(=O)c3nc(C)ccc3C2=O)cc(OC)c1 . Is its GP (growth percentage) below 50%?
true (1)

* * *

Entries and their measured GP (growth percentage) follow.
- Test system: CCRF-CEM
- protocol.description: NCI-60 one-dose screen (leukemia)
- Type: cell-based, human
- condition.set: 10 µM single dose, 48 h
Write the number in % without appending the unit.

Previously resolved entries follow.
# compound, GP (growth percentage) [%]
measured = [
    ("COc1ccccc1NC1=C(Cl)C(=O)c2nc(C)ccc2C1=O [AQQ1]", "−4.94"),
    ("CCOc1ccccc1NC1=C(Cl)C(=O)c2nc(C)ccc2C1=O [AQQ2]", "−6.33"),
    ("COc1cc(NC2=C(Cl)C(=O)c3nc(C)ccc3C2=O)cc(OC)c1 [AQQ5]", 2.72),
    ("CCOc1ccc(NC2=C(Cl)C(=O)c3nc(C)ccc3C2=O)cc1 [AQQ3]", 0.63),
]

# input for lookup
Lab note: measured GP (growth percentage) of COc1ccc(NC2=C(Cl)C(=O)c3nc(C)ccc3C2=O)cc1OC [AQQ4] was 15.29

* * *

- Tested on: UACC-257
- protocol.description: NCI-60 five-dose assay (melanoma)
- Type: cell-based, human
- condition.set: Homo sapiens, 48 h, SRB
The entries below are paired with their reported LC50 (NCI-60 lethal concentration, 50% cell kill).
Give the value, in units of µM, as a plain number.

# chemical.string, target.or.test.system, result
records = [
    ("CCOc1ccc(NC2=C(Cl)C(=O)c3nc(C)ccc3C2=O)cc1", "UACC-257", 5.58),
    ("COc1ccccc1NC1=C(Cl)C(=O)c2nc(C)ccc2C1=O", "UACC-257", 6.11),
]

For CCOc1ccccc1NC1=C(Cl)C(=O)c2nc(C)ccc2C1=O the molecule record lists LC50 (NCI-60 lethal concentration, 50% cell kill) as 5.34

Sample COc1cc(NC2=C(Cl)C(=O)c3nc(C)ccc3C2=O)cc(OC)c1 ; LC50 (NCI-60 lethal concentration, 50% cell kill) observed: 5.37

* * *

- Tested on: PC-3
- protocol.description: NCI-60 one-dose screen (prostate cancer)
- Format: cell-based, human
- condition.set: Homo sapiens, 10 µM single dose
quantity.measured: inhibition at 10 µM

Known inhibition at 10 µM results, listed for orientation:
# chemical.string, quantity.measured, result
rows = [
    ("COc1ccccc1NC1=C(Cl)C(=O)c2nc(C)ccc2C1=O", "inhibition at 10 µM", "72.6%"),
    ("COc1cc(NC2=C(Cl)C(=O)c3nc(C)ccc3C2=O)cc(OC)c1", "inhibition at 10 µM", "72%"),
]

Entry CCOc1ccccc1NC1=C(Cl)C(=O)c2nc(C)ccc2C1=O ; inhibition at 10 µM = 95.7%

Sure, the documented inhibition at 10 µM for CCOc1ccc(NC2=C(Cl)C(=O)c3nc(C)ccc3C2=O)cc1 is 89.6%

* * *

- System: U251
- protocol.description: NCI-60 five-dose assay (CNS cancer)
- Format: cell-based, human
- condition.set: 48 h, SRB
Reported values of TGI for individual entries
Please state the figure in µM; there is no need to write the unit.

# compound, TGI [µM]
rows = [
    ("CCOc1ccccc1NC1=C(Cl)C(=O)c2nc(C)ccc2C1=O [AQQ2]", 3.27),
]

// TGI (U251) for CCOc1ccc(NC2=C(Cl)C(=O)c3nc(C)ccc3C2=O)cc1 [AQQ3] = 3.54

Observed TGI on U251, entry COc1cc(NC2=C(Cl)C(=O)c3nc(C)ccc3C2=O)cc(OC)c1 [AQQ5] , equals 4.44

Measured TGI for this entry COc1ccccc1NC1=C(Cl)C(=O)c2nc(C)ccc2C1=O [AQQ1] on U251: 3.73

* * *

- protocol.description: In vivo bioavailability / pharmacokinetic study IV and PO
- Set-up: species or system male Sprague-Dawley rats
- condition.set: male, Sprague-Dawley, whole blood; rat; PO 5 mg/kg
quantity.measured: AUC(0-inf) (ng·h/mL)
Report the value in ng·h/mL with no unit label.

# chemical.string, quantity.measured, result
data = [
    ("COc1ccccc1NC1=C(Cl)C(=O)c2nc(C)ccc2C1=O", "AUC(0-inf)", 4000),
]

Next molecule, AUC(0-inf) to be filled in.
Entry CCOc1ccccc1NC1=C(Cl)C(=O)c2nc(C)ccc2C1=O — recorded AUC(0-inf) = 2370

* * *

- Test system: NCI-H322M
- protocol.description: NCI-60 one-dose screen (non-small cell lung cancer)
- Type: cell-based, human
- condition.set: 10 µM single dose, 48 h
Checkbox rule: GP (growth percentage) lower than 70% = yes (1); GP (growth percentage) not lower than 70% = no (0).

# chemical.string, label.value
rows = [
    ("CCOc1ccccc1NC1=C(Cl)C(=O)c2nc(C)ccc2C1=O", "yes (1)"),
    ("COc1ccc(NC2=C(Cl)C(=O)c3nc(C)ccc3C2=O)cc1OC", "no (0)"),
    ("COc1cc(NC2=C(Cl)C(=O)c3nc(C)ccc3C2=O)cc(OC)c1", "no (0)"),
]

Please look at the following compound next.
Consider CCOc1ccc(NC2=C(Cl)C(=O)c3nc(C)ccc3C2=O)cc1 . Does its GP (growth percentage) lie strictly below 70%?
yes (1)

* * *

This section presents molecules with their documented GP (growth percentage) values.
- Tested on: MALME-3M
- protocol.description: NCI-60 one-dose screen (melanoma)
- Format: cell-based, human
- condition.set: 10 µM single dose, 48 h
Just the number please, in %, no unit attached.

# chemical.string, GP (growth percentage) (%)
rows = [
    ("CCOc1ccccc1NC1=C(Cl)C(=O)c2nc(C)ccc2C1=O", "−71.39"),
]

Short answer for CCOc1ccc(NC2=C(Cl)C(=O)c3nc(C)ccc3C2=O)cc1 : GP (growth percentage) was −90.58

Value of measured GP (growth percentage) for the entry COc1cc(NC2=C(Cl)C(=O)c3nc(C)ccc3C2=O)cc(OC)c1 : −89.37

The measured GP (growth percentage) associated with COc1ccc(NC2=C(Cl)C(=O)c3nc(C)ccc3C2=O)cc1OC reads 94.54

Recorded result, COc1ccccc1NC1=C(Cl)C(=O)c2nc(C)ccc2C1=O , GP (growth percentage): −55.92

* * *

- Test system: NCI-H522
- protocol.description: NCI-60 one-dose screen (non-small cell lung cancer)
- Assay type: cell-based, human
- condition.set: 10 µM single dose, 48 h
Label scheme for GP (growth percentage): lower than -60% is -1, -60% and above is 1.

Here are 2 compounds together with their reported answers.
# chemical.string, label.value
measured = [
    ("COc1ccc(NC2=C(Cl)C(=O)c3nc(C)ccc3C2=O)cc1OC", 1),
    ("COc1cc(NC2=C(Cl)C(=O)c3nc(C)ccc3C2=O)cc(OC)c1", -1),
]

Could you please find out whether COc1ccccc1NC1=C(Cl)C(=O)c2nc(C)ccc2C1=O has GP (growth percentage) that meets -60% or exceeds it?
1

API: above_or_equal(metric=GP (growth percentage), cutoff=-60%) for item CCOc1ccccc1NC1=C(Cl)C(=O)c2nc(C)ccc2C1=O
1

* * *

Hi! I'm sharing some GI50 results obtained with KM12.
Number in µM, nothing else.

Completed entries (count: 2):
# chemical.string, target.or.test.system, units.symbol, GI50
rows = [
    ("CCOc1ccccc1NC1=C(Cl)C(=O)c2nc(C)ccc2C1=O", "KM12", "µM", 1.41),
    ("CCOc1ccc(NC2=C(Cl)C(=O)c3nc(C)ccc3C2=O)cc1", "KM12", "µM", 1.44),
]

Please fill in: GI50 reported for COc1ccccc1NC1=C(Cl)C(=O)c2nc(C)ccc2C1=O = 1.49

Entry under test: COc1cc(NC2=C(Cl)C(=O)c3nc(C)ccc3C2=O)cc(OC)c1 . Its GI50 was 13

* * *

- Tested on: UO-31
- protocol.description: NCI-60 five-dose assay (renal cancer)
- Format: cell-based, human
- condition.set: 48 h, SRB
# maps each entry to its TGI
Output should be the measured figure followed by the unit it is expressed in.

# chemical.string, result
records = [
    ("COc1ccccc1NC1=C(Cl)C(=O)c2nc(C)ccc2C1=O", "2730 nM"),
]

GET /value?item= COc1cc(NC2=C(Cl)C(=O)c3nc(C)ccc3C2=O)cc(OC)c1 &field=TGI returns 3060 nM

Note to self: TGI recorded for CCOc1ccc(NC2=C(Cl)C(=O)c3nc(C)ccc3C2=O)cc1 was 2750 nM

Reported TGI ( CCOc1ccccc1NC1=C(Cl)C(=O)c2nc(C)ccc2C1=O ) = 2710 nM
